Exercise: state measured pIC50 for each of the molecules provided.
- target.or.test.system: Mcl-1/Bim interaction (Homo sapiens (Human), UniProt Q07820)
- Sequence (Q07820 171-327): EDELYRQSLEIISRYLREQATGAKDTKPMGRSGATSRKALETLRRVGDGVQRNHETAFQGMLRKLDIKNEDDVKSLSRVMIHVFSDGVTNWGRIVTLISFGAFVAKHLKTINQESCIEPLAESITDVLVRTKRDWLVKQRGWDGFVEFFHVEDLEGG
- protocol.details: Cell Free Mcl-1: Bim Affinity Assay (Mcl-1 HTRF)
- experimental.parameters: TR-FRET, recombinant human Mcl-1(171-327), biotin-Bim(51-76); read-out: Mel-1 HTRF IC50
Keep in mind that pIC50 stands for -log10 of concentration in molar terms.

[in] Note down pIC50 recorded for C[C@@H]1CC[C@H]([C@H]2OC[C@@H](N(C)C)CO2)[C@@H]2CC[C@H]2CN2C[C@@]3(CCCc4cc(Cl)ccc43)COc3ccc(cc32)C(=O)NS(=O)(=O)C[C@@H]1C [Example 75]
[out] 7.89

[in] For C[C@@H]1[C@@H](C)CCC[C@@H]([C@H]2OC[C@@H](N3CCC3(C)C)CO2)[C@@H]2CC[C@H]2CN2C[C@@]3(CCCc4cc(Cl)ccc43)COc3ccc(cc32)C(=O)NS1(=O)=O (single isomer, unassigned) [Example 64] , write its pIC50.
[out] 8.31

[in] For the molecule C[C@@H]1[C@@H](C)CCC[C@H](C2OCCO2)[C@@H]2CC[C@H]2CN2C[C@@]3(CCCc4cc(Cl)ccc43)COc3ccc(cc32)C(=O)NS1(=O)=O [Example 3] , report pIC50.
[out] 8.89

* * *

Provide the reported log10 IC50 of each item.
- target.or.test.system: Mcl-1/Bim interaction (Homo sapiens (Human), UniProt Q07820)
- protocol.details: Cell Free Mcl-1: Bim Affinity Assay (Mcl-1 HTRF)
- experimental.parameters: TR-FRET, recombinant human Mcl-1(171-327), biotin-Bim(51-76); read-out: Mel-1 HTRF IC50
Scale: log10; quantity: IC50; unit before log: nM

[in] Recall the reported log10 IC50 of CO[C@H]1CO[C@@H]([C@@H]2CCC[C@H](C)[C@@H](C)S(=O)(=O)NC(=O)c3ccc4c(c3)N(C[C@@H]3CC[C@H]32)C[C@@]2(CCCc3cc(Cl)ccc32)CO4)OC1 (single isomer, unassigned) [Example 25] when tested on Mcl-1/Bim interaction (Homo sapiens (Human), UniProt Q07820).
[out] -0.33

[in] With Mcl-1/Bim interaction (Homo sapiens (Human), UniProt Q07820) as the test system, provide measured log10 IC50 for this compound: CCN(C)[C@H]1CO[C@@H]([C@H]2CCC[C@H](C)[C@@H](C)S(=O)(=O)NC(=O)c3ccc4c(c3)N(C[C@@H]3CC[C@H]32)C[C@@]2(CCCc3cc(Cl)ccc32)CO4)OC1 (relative stereo) [Example 46]
[out] -0.47

[in] Provide measured log10 IC50 on Mcl-1/Bim interaction (Homo sapiens (Human), UniProt Q07820) for C[C@@H]1[C@@H](C)CCC[C@H]([C@H]2O[C@H]3CN(C)C[C@H]3O2)[C@@H]2CC[C@H]2CN2C[C@@]3(CCCc4cc(Cl)ccc43)COc3ccc(cc32)C(=O)NS1(=O)=O (stereo in doubt) please.
[out] -0.15

[in] Report log10 IC50 on Mcl-1/Bim interaction (Homo sapiens (Human), UniProt Q07820) for this entry: `CC(=O)N(C)[C@H]1CO[C@@H]([C@H]2CCC[C@H](C)[C@@H](C)S(=O)(=O)NC(=O)c3ccc4c(c3)N(C[C@@H]3CC[C@H]32)C[C@@]2(CCCc3cc(Cl)ccc32)CO4)OC1`
[out] -0.25

[in] System Mcl-1/Bim interaction (Homo sapiens (Human), UniProt Q07820). Read-out log10 IC50. Item C[C@@H]1[C@@H](C)C/C=C/[C@@H]([C@H]2OC[C@H](N(C)C)CO2)[C@@H]2CC[C@H]2CN2C[C@@]3(CCCc4cc(Cl)ccc43)COc3ccc(cc32)C(=O)NS1(=O)=O (relative stereo) . Report value.
[out] -0.34

[in] Report measured log10 IC50 on Mcl-1/Bim interaction (Homo sapiens (Human), UniProt Q07820); entry: CC[C@@H]1CCCC[C@H]([C@H]2OC[C@@H](N(C)C)CO2)C2CC[C@H]2CN2C[C@@]3(CCCc4cc(Cl)ccc43)COc3ccc(cc32)C(=O)NS1(=O)=O (stereo in doubt) [Example 73]
[out] -0.18

[in] Write log10 IC50 of C[C@@H]1[C@@H](C)CCC[C@@H]([C@H]2OC[C@H](CN(C)C)O2)[C@@H]2CC[C@H]2CN2C[C@@]3(CCCc4cc(Cl)ccc43)COc3ccc(cc32)C(=O)NS1(=O)=O (single isomer, unassigned) [Example 34] ; system used: Mcl-1/Bim interaction (Homo sapiens (Human), UniProt Q07820)
[out] 1.05

[in] Fill in: log10 IC50 on Mcl-1/Bim interaction (Homo sapiens (Human), UniProt Q07820), entry C[C@@H]1[C@@H](C)CCC[C@H]([C@H]2O[C@H]3CNC[C@H]3O2)[C@@H]2CC[C@H]2CN2C[C@@]3(CCCc4cc(Cl)ccc43)COc3ccc(cc32)C(=O)NS1(=O)=O (stereo in doubt) [Example 9]
[out] -0.31

[in] Look up Mcl-1/Bim interaction (Homo sapiens (Human), UniProt Q07820) data: log10 IC50 of C[C@@H]1[C@@H](C)CCC[C@H](C2OCCCO2)[C@@H]2CC[C@H]2CN2C[C@@]3(CCCc4cc(Cl)ccc43)COc3ccc(cc32)C(=O)NS1(=O)=O [Example 7] , then report it.
[out] -0.02

* * *

- target.or.test.system: Mcl-1/Bim interaction (Homo sapiens (Human), UniProt Q07820)
- protocol.details: Cell Free Mcl-1: Bim Affinity Assay (Mcl-1 HTRF)
- experimental.parameters: TR-FRET, recombinant human Mcl-1(171-327), biotin-Bim(51-76); read-out: Mel-1 HTRF IC50
Exercise: state measured IC50 for each of the compounds provided.
Show the value, then the unit it is measured in.

[in] Recall and state the measured IC50 for COC[C@H]1[C@@H](C)CCC[C@H]([C@H]2OC[C@@H](N(C)C)CO2)[C@@H]2CC[C@H]2CN2C[C@@]3(CCCc4cc(Cl)ccc43)COc3ccc(cc32)C(=O)NS1(=O)=O [Example 87] .
[out] 5.71 nM

[in] Consider the compound C[C@@H]1[C@@H](C)CCC[C@H]([C@H]2OC[C@](N)(CO)CO2)[C@@H]2CC[C@H]2CN2C[C@@]3(CCCc4cc(Cl)ccc43)COc3ccc(cc32)C(=O)NS1(=O)=O [Example 79] . State its measured IC50.
[out] 0.704 nM

[in] Recall and state the measured IC50 for C[C@@H]1[C@@H](C)CCC[C@@H]([C@H]2OC[C@H](CN(C)C)O2)[C@@H]2CC[C@H]2CN2C[C@@]3(CCCc4cc(Cl)ccc43)COc3ccc(cc32)C(=O)NS1(=O)=O (single isomer, unassigned) [Example 33] .
[out] 0.612 nM

* * *

- target.or.test.system: Mcl-1/Bim interaction (Homo sapiens (Human), UniProt Q07820)
- protocol.details: Cell Free Mcl-1: Bim Affinity Assay (Mcl-1 HTRF)
- experimental.parameters: TR-FRET, recombinant human Mcl-1(171-327), biotin-Bim(51-76); read-out: Mel-1 HTRF IC50
- Protocol: Cell Free Mcl-1: Bim Affinity Assay (Mcl-1 HTRF) The inhibition of the Mcl-1/Bim interaction was measured using a time-resolved fluorescence resonance energy transfer (TR-FRET) assay. […] The reaction plates were further incubated overnight and then were read on an Envision® multimode reader (PerkinElmer). Fluorescence signals were measured at 620 nm (40-nm bandwidth) and 665 nm (7.5-nm bandwidth) with a 60 μs delay after excitation at 320 nm (75-nm bandwidth). […]
pIC50: −log10 of the molar value.
Each entry gets 0 (no) if its pIC50 stays under 9, and 1 (yes) if its pIC50 is 9 or above.

[in] Decide: is the reported value of pIC50 for C[C@@H]1[C@@H](C)CCC[C@H]([C@H]2OC[C@H](O)CO2)[C@@H]2CC[C@H]2CN2C[C@@]3(CCCc4cc(Cl)ccc43)COc3ccc(cc32)C(=O)NS1(=O)=O [Example 11] equal to or greater than 9?
[out] 1 (yes)

[in] Item `C[C@@H]1[C@@H](C)CCC[C@](C)([C@H]2OC[C@@H](N(C)C)CO2)[C@@H]2CC[C@H]2CN2C[C@@]3(CCCc4cc(Cl)ccc43)COc3ccc(cc32)C(=O)NS1(=O)=O` with pIC50 of 9 or above?
[out] 0 (no)

* * *

- target.or.test.system: Mcl-1/Bim interaction (Homo sapiens (Human), UniProt Q07820)
- protocol.details: Cell Free Mcl-1: Bim Affinity Assay (Mcl-1 HTRF)
- experimental.parameters: TR-FRET, recombinant human Mcl-1(171-327), biotin-Bim(51-76); read-out: Mel-1 HTRF IC50
endpoint: pIC50
Please report pIC50 as the negative decimal logarithm of the molar concentration, giving only the number.

[in] Write down pIC50 measured for item C[C@@H]1[C@@H](C)CCC[C@@H]([C@H]2OC[C@@H](N3CC(F)C3)CO2)[C@@H]2CC[C@H]2CN2C[C@@]3(CCCc4cc(Cl)ccc43)COc3ccc(cc32)C(=O)NS1(=O)=O (single isomer, unassigned) [Example 51]
[out] 9.12

[in] Output measured pIC50 for this item: C[C@@H]1[C@@H](C)CCC[C@H]([C@H]2OC[C@@H](N3CC4(COC4)C3)CO2)[C@@H]2CC[C@H]2CN2C[C@@]3(CCCc4cc(Cl)ccc43)COc3ccc(cc32)C(=O)NS1(=O)=O (relative stereo) [Example 59]
[out] 9.50

[in] Recall and state the measured pIC50 for C[C@@H]1[C@@H](C)CCC[C@H]([C@H]2OC[C@](N)(CO)CO2)[C@@H]2CC[C@H]2CN2C[C@@]3(CCCc4cc(Cl)ccc43)COc3ccc(cc32)C(=O)NS1(=O)=O [Example 40] .
[out] 9.24

[in] Indicate the recorded pIC50 value for this compound: C[C@@H]1[C@@H](C)CCC[C@H]([C@H]2O[C@H]3CNC[C@H]3O2)[C@@H]2CC[C@H]2CN2C[C@@]3(CCCc4cc(Cl)ccc43)COc3ccc(cc32)C(=O)NS1(=O)=O (stereo in doubt) [Example 10]
[out] 8.90

[in] Write down pIC50 measured for item C[C@@H]1[C@@H](C)CCC[C@@H]([C@H]2OC[C@@H](N3CC(O)C3)CO2)[C@@H]2CC[C@H]2CN2C[C@@]3(CCCc4cc(Cl)ccc43)COc3ccc(cc32)C(=O)NS1(=O)=O (single isomer, unassigned) [Example 62]
[out] 8.68
